Experiment: method code SF, from Hansch, C. & Leo, A. (1987). Log P database [Dataset]. Pomona College Medicinal Chemistry Project.
Field: label. Allowed values: 1 (logP < 2) or -1 (logP >= 2).

{"columns": ["structure_as_smiles", "assigned_category"],
 "data": [
  ["CCCCN(C)C", 1],
  ["NC(=O)c1ccc(O)cc1", 1],
  ["O=[N+]([O-])c1cc[n+]([O-])cc1", 1],
  ["CN(C)C(=O)Oc1ccccc1Br", -1],
  ["O=C(Nc1ccc(Cl)c(Cl)c1)C(F)F", -1],
  ["COc1ccccc1C=C(C(C)=O)C(C)=O", 1],
  ["NC(=S)c1ccccc1N", 1],
  ["CC(=O)C(=Cc1ccccc1Cl)C(C)=O", -1],
  ["CC1=NCCN1CCO", 1],
  ["CCOc1cn[nH]c1", 1],
  ["CCC(=O)OCC(=O)[C@@]1(OC(=O)CC)[C@@H](C)C[C@H]2[C@@H]3CCC4=CC(=O)C=C[C@]4(C)[C@@]3(F)[C@@H](O)C[C@@]21C", -1]
]}
